- procedure.details: Pharmacokinetics of hydrochloride crystal form A in Beagle dogs
- Type: in vivo
- test.conditions: dog, plasma, po; single i.g. 6 mg/kg, male Beagle dogs, mean
Structures can show the parent of a compound that is named as a salt.
value.kind: half-life (h)
Number in h, nothing else.

## Task Given CC[S@@](=N)(=O)C[C@H]1CC[C@H](N(C)c2ncnc3[nH]ccc23)CC1 [Hydrochloride crystal form A] , respond with its half-life.
## Result 3.59

----------
- procedure.details: Pharmacokinetics of free crystal form A in Beagle dogs
- Assay type: in vivo
- test.conditions: both sexes, beagle, dog, plasma, iv, 2 mg/kg, i.v. 2 mg/kg, male and female, mean; read-out: MRT0-t
- Protocol: All the animals in this experiment were randomly divided into 4 groups (3 dogs/sex/group). […] The drug concentration in the plasma of each Beagle dog was determined by liquid chromatography with tandem mass spectrometry (LC-MS/MS). The obtained plasma concentration data was analyzed by using the pharmacokinetic processing software WinNonlin 8.0 with a non-compartmental model to calculate relevant pharmacokinetic parameters.
value.kind: MRT last (h)
Number in h, nothing else.

## Task Given CC[S@@](=N)(=O)C[C@H]1CC[C@H](N(C)c2ncnc3[nH]ccc23)CC1 [Free crystal form A] , respond with its MRT last.
## Result 4.3
